Would you kindly list pIC50 for each of these compounds?
Target: E-selectin (Homo sapiens)
Sequence (P16581 whole entry): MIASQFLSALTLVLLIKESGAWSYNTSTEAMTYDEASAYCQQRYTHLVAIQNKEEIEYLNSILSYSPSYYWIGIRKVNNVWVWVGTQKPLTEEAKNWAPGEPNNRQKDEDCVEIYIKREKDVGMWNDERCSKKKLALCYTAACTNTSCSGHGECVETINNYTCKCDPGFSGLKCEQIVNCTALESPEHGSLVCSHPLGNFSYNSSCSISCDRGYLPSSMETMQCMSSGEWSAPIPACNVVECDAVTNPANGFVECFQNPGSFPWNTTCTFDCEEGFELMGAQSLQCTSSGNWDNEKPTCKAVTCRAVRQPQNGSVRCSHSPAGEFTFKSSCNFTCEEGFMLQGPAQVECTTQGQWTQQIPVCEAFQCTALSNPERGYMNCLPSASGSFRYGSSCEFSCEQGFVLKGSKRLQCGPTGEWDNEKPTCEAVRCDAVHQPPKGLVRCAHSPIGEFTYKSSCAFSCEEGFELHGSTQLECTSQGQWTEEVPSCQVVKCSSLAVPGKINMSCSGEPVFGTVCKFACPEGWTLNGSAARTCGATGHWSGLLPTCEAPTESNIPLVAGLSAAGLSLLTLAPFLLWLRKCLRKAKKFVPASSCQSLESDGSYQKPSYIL
Assay: Compound was tested in a cell-free SLe-polyacrylamide glycoconjugate binding assay (assay A) in Selectin E
Give bare numbers, as −log10 of the molar value.

pIC50 reading for O=C(O)CCC(NC(=O)CC1OC(COCCCc2ccc(Oc3ccc(Oc4ccccc4)cc3)cc2)C(O)C(O)C1O)C(=O)O (stereo not drawn) : 3.46

Hey, can you go through the list below and give me pIC50 for every item?
1. CC1OC(CC(C(=O)NCCc2ccccc2)N(CC(=O)NC(CCC(=O)O)C(=O)O)C(=O)CCc2ccc(Oc3ccc(Oc4ccccc4)cc3)cc2)C(O)C(O)C1O (stereo not drawn)
2. CC1OC(CC(=O)N(CC(=O)NC(CCC(=O)O)C(=O)O)C(CCc2ccc(Oc3ccc(Oc4ccccc4)cc3)cc2)C(=O)NCCc2ccccc2)C(O)C(O)C1O (stereo not drawn)

1. 3.28
2. 3.02
